# Tested on: SK-MEL-28
# testDetails: NCI tumour cell line growth inhibition, 48 h
Activity calls are given as the source filed them. Rule as the data show it: active = GI50 up to about 1.1 µM and inactive = higher.
quantityKind: GI50

Worked examples follow.
COC(=O)CC(C(C(=O)OCc1ccccc1)C(C)O)N1C(=O)OCC1c1ccccc1 (stereo unspecified) :: > 100 µM (inactive)
O=C(CN1CCCCC1)Nc1ccc2sc3ccccc3c(=O)c2n1 :: 17.3 µM (inactive)
CC(=O)/C=C\C(=O)NNS(=O)(=O)c1ccc(C)cc1 :: > 100 µM (inactive)
CNc1nnc(CCCCCCCCc2nnc(NC)o2)o1 :: > 100 µM (inactive)
Nc1c(-c2nc3ccccc3[nH]2)sc(=S)n1-c1ccccc1 :: > 100 µM (inactive)
Cc1nccn1S(=O)(=O)c1ccc(Cl)cc1 :: 94 µM (inactive)
CC(=O)O[C@H]1CN(S(=O)(=O)c2ccc(C)cc2)C[C@@H]1C1CCCCC1 :: 20.5 µM (inactive)
Oc1ccc(CNCc2ccccc2)c2cccnc12 :: 0.424 µM (active)
CN(C)CCNC(=O)Cn1ccc(=O)c2c([N+](=O)[O-])cccc21 :: > 100 µM (inactive)
O=C1C2=C(N[C@@H](c3ccccc3)[C@H](c3ccccc3)N2)C(=O)c2ccccc21 :: > 100 µM (inactive)

Field: next compound
Enquiry: # lookup: GI50 of `COc1cc2cccc(/N=C\c3cccc(OC)c3OC(C)C)c2cc1OC`
Return: 24.3 µM (inactive)
